# Experiment Notes: chemical genetic growth profiling, strain panel (AID 1159580);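 further: tested at 20 µM; growth read once vehicle control cultures reached saturation at 30 °C; 1 = growth at the plate median or of vehicle wells; lower values mean less growth of the strain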
# Condition Info: S. cerevisiae deletion strains, growth OD, locus YHR079C, strain IRE1, hits give low values
Out of some 5,500 compounds screened, about 2,000 (36%) were called active. Inconclusive results (about 18%) are left out. This is one part of the list.
Measured Quantity: normalized growth
Answer using only a numeral; do not append any unit.

Recorded normalized growth, per entry:
CC(C[N+](C)(C)C)OC(N)=O (stereo not given); 0.976
CN1CCCN=C1COC(=O)C(O)(c1ccccc1)C1CCCCC1 (stereo not given); 1.01
CC[N+](C)(CC)CCOC(=O)C(O)(c1ccccc1)C1CCCCC1 (stereo not given); 1
O=C1C(=O)N(CN2CCc3c([nH]c4ccccc34)C2C(F)(F)F)c2ccc(F)cc21 (stereo not given); 0.667

Next item in the queue.
-- ask Name the reported normalized growth value associated with the compound NC(=O)c1ccc[n+]([C@@H]2O[C@H](COP(=O)([O-])OP(=O)(O)OC[C@H]3O[C@@H](n4cnc5c(N)ncnc54)[C@H](O)[C@@H]3O)[C@@H](O)[C@H]2O)c1
-- reply 0.962

----------
# Experiment Notes: chemical genetic growth profiling, strain panel (AID 1159580)
# Condition Info: S. cerevisiae deletion strains, growth OD, locus YNL067W, strain RPL9B, hits give low values
Out of some 5,500 compounds screened, about 2,000 (36%) were called active. Not shown: some 18% with an inconclusive outcome. The list shows a part of the results.
Measured Quantity: normalized growth
Answer using only a numeral; do not append any unit.

Recorded normalized growth, per entry:
COc1ccc2cc([C@H](C)C(=O)O)ccc2c1; 1.02
CC1/C(=N\O)C[C@@H]2C[C@H]1C2(C)C (some centres not stated); 1.02
CNCCc1ccccn1; 1.02
CC(C(=O)O)c1cccc(C(=O)c2ccccc2)c1 (configuration not stated); 1.04
COCCc1ccc(OCC(O)CNC(C)C)cc1 (configuration not stated); 1.02
COC1=CC(=O)C[C@@H](C)[C@]12Oc1c(Cl)c(OC)cc(OC)c1C2=O; 1.04
C=C1C2CC[C@H]3[C@]4(C)C[C@H](OC5OC(CO)C(OS(=O)(=O)O)C(OS(=O)(=O)O)C5OC(=O)CC(C)C)C[C@@H](C(=O)O)[C@H]4CC[C@]3(C2)[C@H]1O (some centres not stated); 1.02
CC(C(=O)O)c1cccc(Oc2ccccc2)c1 (configuration not stated); 1

-- ask Name the reported normalized growth value associated with the molecule CC(N)CCCC(C)(C)O (configuration not stated)
-- reply 0.973

-- ask Name the reported normalized growth value associated with the molecule CCCCCCCCCCCCCCCC(=O)OC/C=C(C)/C=C/C=C(C)/C=C/C1=C(C)CCCC1(C)C
-- reply 1.02

-- ask Name the reported normalized growth value associated with the molecule COc1ccc2cc([C@H](C)CO)ccc2c1
-- reply 0.991

-- ask Name the reported normalized growth value associated with the molecule COc1ccc(OC)c(C(O)C(C)N)c1 (configuration not stated)
-- reply 1.02

----------
Attribute: normalized growth
# Experiment Notes: chemical genetic growth profiling, strain panel (AID 1159580)
# Condition Info: S. cerevisiae deletion strains, growth OD, locus YLL001W, strain dnm1, hits give low values
The whole screen tested about 5,500 compounds, of which about 2,000 (36%) were called active. Inconclusive results (about 18%) are left out. Some of the results follow.

Recorded normalized growth, per entry:
COc1ccc2cc([C@H](C)C(=O)O)ccc2c1; 0.982 (inactive)
NC(=O)C(c1ccccc1)(c1ccccc1)C1CCN(CCc2ccc3c(c2)CCO3)C1 (stereo unspecified); 1.03 (inactive)
N=c1ccn2c(n1)O[C@@H]1C2O[C@H](CO)[C@H]1O (stereo partly specified); 0.982 (inactive)
O=C(O)c1c2ccccc2cc2ccccc12; 1 (inactive)
CC(Oc1ccccc1)C(=O)N[C@@H]1C(=O)N2[C@@H]1SC(C)(C)[C@@H]2C(=O)O (stereo partly specified); 0.983 (inactive)

-- ask Name the reported normalized growth value associated with the molecule CCOC(=O)C(C)(C)Oc1ccc(Cl)cc1
-- reply 0.987 (inactive)

----------
# Experiment Notes: chemical genetic growth profiling, strain panel (AID 1159580)
# Condition Info: S. cerevisiae deletion strains, growth OD, locus YDL101C, strain DUN1, hits give low values
Among all 5,500 compounds or so, about 2,000 (36%) were called active. Another 18% or so got no clear call; they are omitted. The list shows a part of the results.
Measured Quantity: normalized growth
Answer using only a numeral; do not append any unit.

Recorded normalized growth, per entry:
O=C(CSc1nnnn1-c1ccccc1)NC1Cc2ccccc2C1; 1
Cc1cc(C(=O)Nc2ccc(Cl)cc2)nn1C(C)(C)C; 0.984
COC1=C(OC)C(=O)C(C/C=C(\C)CC/C=C(\C)CC/C=C(\C)CC/C=C(/C)CC/C=C(\C)CC/C=C(\C)CC/C=C(\C)CC/C=C(\C)CC/C=C(\C)CCC=C(C)C)=C(C)C1=O; 0.982
CC(C)(C)c1ccc(NC(=O)Cc2cc(F)cc(F)c2)cc1; 1.02

-- ask Name the reported normalized growth value associated with the compound O=C(CC[N+](=O)[O-])OC[C@H]1O[C@@H](O)[C@H](OC(=O)CC[N+](=O)[O-])[C@@H](OC(=O)CC[N+](=O)[O-])[C@@H]1OC(=O)CC[N+](=O)[O-]
-- reply 1.02

-- ask Name the reported normalized growth value associated with the compound Cc1nn(Cc2cccc(C(=O)Nc3ccc(Cl)cc3)c2)c(C)c1Br
-- reply 0.981

-- ask Name the reported normalized growth value associated with the compound CC1/C(=N\O)C[C@@H]2C[C@H]1C2(C)C (stereo partly drawn)
-- reply 1.02

-- ask Name the reported normalized growth value associated with the compound CC(C)CC(NC(=O)C(Cc1ccccc1)NC(=O)CNC(=O)CNC(=O)C(N)Cc1ccc(O)cc1)C(=O)O (stereo not drawn)
-- reply 1.02

----------
# Experiment Notes: chemical genetic growth profiling, strain panel (AID 1159580);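 further: tested at 20 µM; growth read once vehicle control cultures reached saturation at 30 °C; 1 = growth at the plate median or of vehicle wells; lower values mean less growth of the strain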
# Condition Info: S. cerevisiae deletion strains, growth OD, locus YDR052C, strain DBF4, hits give low values
Out of some 5,500 compounds screened, about 2,000 (36%) were called active. Roughly 18% stayed inconclusive and do not appear here. Some of the results follow.
Attribute: normalized growth

Recorded normalized growth, per entry:
Cc1c(Cc2ccc(F)cc2)c(=O)oc2cc(O)ccc12; 0.987 (inactive)
O=C(CSc1nnnn1-c1ccccc1)c1ccccc1; 0.966 (inactive)
COc1ccc(CN2CSC(=S)N(Cc3ccc(OC)cc3)C2)cc1; 0.975 (inactive)
Cc1nn(Cc2cccc(C(=O)Nc3ccc(Cl)cc3)c2)c(C)c1Br; 0.986 (inactive)
COc1cc2c(cc1OC)C(C)N(C(=O)c1sc3ccccc3c1Cl)CC2 (stereo not given); 0.989 (inactive)
Cc1ccc(Sc2c(Sc3ccc(C)cc3)c(=O)c2=O)cc1; 0.974 (inactive)

-- ask Name the reported normalized growth value associated with the molecule CCOC(=O)CSC(=S)NCc1ccc(C)cc1
-- reply 0.972 (inactive)

-- ask Name the reported normalized growth value associated with the molecule O=C(N/C=C/c1ccsc1)Nc1cc(C(F)(F)F)cc(C(F)(F)F)c1
-- reply 0.98 (inactive)

-- ask Name the reported normalized growth value associated with the molecule CSC1=NNC(c2nn(C)cc2Cl)S1 (stereo not given)
-- reply 0.874 (active)

-- ask Name the reported normalized growth value associated with the molecule Cc1cc(C(=O)Nc2ccc(Cl)cc2)nn1C(C)(C)C
-- reply 1 (inactive)

-- ask Name the reported normalized growth value associated with the molecule COc1cc(NC(=S)NC(=O)c2ccccc2)c(OC)cc1Cl
-- reply 0.996 (inactive)

----------
# Experiment Notes: chemical genetic growth profiling, strain panel (AID 1159580);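 further: tested at 20 µM; growth read once vehicle control cultures reached saturation at 30 °C; 1 = growth at the plate median or of vehicle wells; lower values mean less growth of the strain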
# Condition Info: S. cerevisiae deletion strains, growth OD, locus YDR363W, strain ESC2, hits give low values
Out of some 5,500 compounds screened, about 2,000 (36%) were called active. Not shown: some 18% with an inconclusive outcome. Some of the results follow.
Attribute: normalized growth
Answer using only a numeral; do not append any unit.

Recorded normalized growth, per entry:
CCN(CC)CCCC(C)Nc1c2ccc(Cl)cc2nc2ccc(OC)cc12 (stereo unspecified); 0.715
OC1(c2ccc(Cl)cc2)CCN(Cc2c[nH]c3ccccc23)CC1; 0.974
CCN(CC)CC#CCOC(=O)C(O)(c1ccccc1)C1CCCCC1 (stereo unspecified); 1.01
CCN(CC)CCCC(C)Nc1ccnc2cc(Cl)ccc12 (stereo unspecified); 1.01
Cc1cccc(C)c1OCC(C)N (stereo unspecified); 0.97

-- ask Name the reported normalized growth value associated with the molecule CC(C)(C)NC[C@H](O)COc1nsnc1N1CCOCC1
-- reply 0.989

----------
# Experiment Notes: chemical genetic growth profiling, strain panel (AID 1159580);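 further: tested at 20 µM; growth read once vehicle control cultures reached saturation at 30 °C; 1 = growth at the plate median or of vehicle wells; lower values mean less growth of the strain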
# Condition Info: S. cerevisiae deletion strains, growth OD, locus YLR262C, strain YPT6, hits give low values
The campaign covered roughly 5,500 compounds. About 2,000 (36%) were called active. Inconclusive results (about 18%) are left out. Some of the results follow.
Each record's class is read off its normalized growth using these ranges: range 1 = under 0.9, range 2 = from 0.9 up to 1, range 3 = 1 and over

CC12CCC3C(CCC4=CC(=O)CCC43CO)C1CCC2OC(=O)c1ccccc1 (centres undefined); range 2
CCC(=O)O[C@H]1CCC2C3CCC4=CC(=O)CC[C@]4(C)C3CC[C@@]21C (some centres undefined); range 1
C[C@]12CCC(=O)C=C1CCC1C2CC[C@@]2(C)C1CC[C@@H]2O (some centres undefined); range 3
COc1cc(O)c(C(=O)/C=C/c2ccccc2)c(OC)c1; range 1

Lab note: next molecule to report on.
-- ask Place this molecule in its band: CC[C@H](/C=C/C(C)C1CCC2C3CCC4=CC(=O)CC[C@]4(C)C3CC[C@]12C)C(C)C (some centres undefined)
-- reply range 3

Each recorded value in this set is attributed to PubChem BioAssay AID1159580.
